Data provenance is PubChem BioAssay (NCI).

# Test system: SK-MEL-5 melanoma
# PROTOCOL DETAILS: NCI-60 one-dose screen, 48 h (100 = growth as untreated, 0 = no growth, -100 = all killed)
# APPLIED CONDITIONS: 10 µM unless noted
About 83,000 compounds went through this panel and 20% of them were active in at least one assay; those are over-represented in the sample as a whole.

{"SMILES ENTRY": "FCc1nc2nc(Cl)c(Cl)nc2[nH]1", "growth [%]": 99.4}
{"SMILES ENTRY": "O=C(OCc1nc2nc(Cl)nc(N3CCOCC3)c2[nH]1)n1ccnc1", "growth [%]": 20.1}
{"SMILES ENTRY": "c1ccc(-c2nnc(Nc3ccc4c(c3)OCCO4)o2)c(NCc2ccncc2)c1", "growth [%]": -50}
{"SMILES ENTRY": "Cc1cccc(C)c1-c1cc(Cc2ccc(Cl)cc2)c(=O)[nH]n1", "growth [%]": 98.8}
{"SMILES ENTRY": "Nc1nc(N)nc(NCc2ccccc2)n1", "growth [%]": 103}
{"SMILES ENTRY": "COc1ccccc1N1CCN(C(=O)c2ccc3nc(NC(=O)c4ccc(NCCc5ccccc5)c([N+](=O)[O-])c4)sc3c2)CC1", "growth [%]": 84.4}
{"SMILES ENTRY": "O=C(N/N=C/c1cccnc1)c1ccccc1Nc1cccc(C(F)(F)F)c1", "growth [%]": 74.3}
{"SMILES ENTRY": "c1ccc(Cn2nc3c(c2-c2ccccc2)-c2oncc2CC3)cc1", "growth [%]": 84.8}

====

# Test system: CCRF-CEM leukemia
# PROTOCOL DETAILS: NCI-60 one-dose screen, 48 h
# APPLIED CONDITIONS: 10 µM unless noted
This is part of a sample that, as a whole, favours compounds with a hit. Of some 83,000 tested, about 20% had one in any assay. Calls of active or inactive are those of the source. How the source made its calls: active means growth percent below 10; inactive means the rest.
Outcome codes: active, inactive

{"COMPOUND": "CN1CCN(c2ccc3nc(-c4cc(C(C)(C)C)c(O)c(C(C)(C)C)c4)[nH]c3c2)CC1", "MEASUREMENT TARGET": "CCRF-CEM leukemia", "CLASS NAME": "inactive"}
{"COMPOUND": "COc1cc2nc(-c3ccc(C(F)(F)F)cc3)cc(OCCCN3CCC(O)CC3)c2cc1OC", "MEASUREMENT TARGET": "CCRF-CEM leukemia", "CLASS NAME": "inactive"}
{"COMPOUND": "Clc1cc(Cl)cc(N2N=C(c3cccc(Nc4ccncc4)c3)CC2c2ccccc2)c1 (configuration not stated)", "MEASUREMENT TARGET": "CCRF-CEM leukemia", "CLASS NAME": "inactive"}
{"COMPOUND": "COc1cc(OC)cc(C2C3=C(COC3=O)Nc3cc(OC)ccc32)c1 (configuration not stated)", "MEASUREMENT TARGET": "CCRF-CEM leukemia", "CLASS NAME": "inactive"}
{"COMPOUND": "COc1ccc(CNC(=O)COc2ccc(/C=N/Nc3nc4ccccc4s3)cc2)cc1", "MEASUREMENT TARGET": "CCRF-CEM leukemia", "CLASS NAME": "inactive"}
{"COMPOUND": "COc1ccc(/C(=C\\c2ccccc2)C(=O)O)cc1OC", "MEASUREMENT TARGET": "CCRF-CEM leukemia", "CLASS NAME": "inactive"}
{"COMPOUND": "N#C/C(=C\\c1ccc(Br)cc1)n1nnc2cccc(F)c21", "MEASUREMENT TARGET": "CCRF-CEM leukemia", "CLASS NAME": "active"}
{"COMPOUND": "O=c1[nH]nc(-c2ccc(Br)cc2)cc1Cc1ccc(O)cc1", "MEASUREMENT TARGET": "CCRF-CEM leukemia", "CLASS NAME": "active"}
{"COMPOUND": "O=C1CCCN1c1cccc2cccnc12", "MEASUREMENT TARGET": "CCRF-CEM leukemia", "CLASS NAME": "inactive"}
{"COMPOUND": "O=C(Nc1ccc(Nc2ncccn2)cc1)NC1C=c2ccccc2=CC1 (configuration not stated)", "MEASUREMENT TARGET": "CCRF-CEM leukemia", "CLASS NAME": "inactive"}
{"COMPOUND": "CC(C)(C)OC(=O)N1CCN(c2ccc(N)cc2)C(=O)C1", "MEASUREMENT TARGET": "CCRF-CEM leukemia", "CLASS NAME": "inactive"}
{"COMPOUND": "O=C(N=Nc1c(O)[nH]c2ccc(F)cc12)c1cc2ccccc2[nH]1", "MEASUREMENT TARGET": "CCRF-CEM leukemia", "CLASS NAME": "inactive"}
{"COMPOUND": "Cc1ccc(/C=C/C(=O)c2ccc(N)cc2)c(C)c1", "MEASUREMENT TARGET": "CCRF-CEM leukemia", "CLASS NAME": "active"}
{"COMPOUND": "CCN(CC)S(=O)(=O)c1cccc([N+](=O)[O-])c1", "MEASUREMENT TARGET": "CCRF-CEM leukemia", "CLASS NAME": "inactive"}
{"COMPOUND": "COc1ccccc1OCC(=O)N1CCCCCC1", "MEASUREMENT TARGET": "CCRF-CEM leukemia", "CLASS NAME": "inactive"}
{"COMPOUND": "C#Cc1cccc(NC(=O)Nc2ccc(NC(=O)CCl)cc2)c1", "MEASUREMENT TARGET": "CCRF-CEM leukemia", "CLASS NAME": "active"}
{"COMPOUND": "CN1CCN(c2cnc(C(=O)Nc3cc(F)cc4cccnc34)cn2)CC1", "MEASUREMENT TARGET": "CCRF-CEM leukemia", "CLASS NAME": "inactive"}
{"COMPOUND": "COc1ccccc1N1CCN(C(=O)c2ccc3nc(NC(=O)c4ccc(NCCc5ccccc5)c([N+](=O)[O-])c4)sc3c2)CC1", "MEASUREMENT TARGET": "CCRF-CEM leukemia", "CLASS NAME": "inactive"}
{"COMPOUND": "Cc1ccc(Nc2cc(=S)nc(N)[nH]2)cc1C", "MEASUREMENT TARGET": "CCRF-CEM leukemia", "CLASS NAME": "inactive"}
{"COMPOUND": "O=C(Nc1cccc(Cl)c1)Oc1c(Br)c(Br)c(Br)c(Br)c1Br", "MEASUREMENT TARGET": "CCRF-CEM leukemia", "CLASS NAME": "inactive"}
{"COMPOUND": "OC(c1ccccc1)c1ccccn1 (configuration not stated)", "MEASUREMENT TARGET": "CCRF-CEM leukemia", "CLASS NAME": "inactive"}
{"COMPOUND": "Cc1cc2cc3cc(C)c(N)cc3[n+](C)c2cc1N", "MEASUREMENT TARGET": "CCRF-CEM leukemia", "CLASS NAME": "inactive"}
{"COMPOUND": "CC(=O)[C@@H]1CC[C@]2(C(N)=O)CC[C@]3(C)[C@H](CC[C@@H]4[C@@]5(C)CCC(=O)C(C)(C)[C@@H]5CC[C@]43C)[C@@H]12", "MEASUREMENT TARGET": "CCRF-CEM leukemia", "CLASS NAME": "inactive"}
{"COMPOUND": "COc1ccc(CNCCN2C(=O)c3ccc4c5c(ccc(c35)C2=O)C(=O)N(CCNCc2ccc(OC)cc2)C4=O)cc1", "MEASUREMENT TARGET": "CCRF-CEM leukemia", "CLASS NAME": "active"}
{"COMPOUND": "c1ccc(-c2nnc(Nc3ccc4c(c3)OCCO4)o2)c(NCc2ccncc2)c1", "MEASUREMENT TARGET": "CCRF-CEM leukemia", "CLASS NAME": "inactive"}
{"COMPOUND": "COc1cc(C(=O)/C=C/c2c(C)n([O-])c3ccc(Cl)cc3[n+]2=O)cc(OC)c1OC", "MEASUREMENT TARGET": "CCRF-CEM leukemia", "CLASS NAME": "active"}
{"COMPOUND": "CC1=CC2(C)/C=C(C)/C=C\\CC(O)/C=C3/C=CC(=C4C(=O)OC2(CC1C)C4=O)OC3 (configuration not stated)", "MEASUREMENT TARGET": "CCRF-CEM leukemia", "CLASS NAME": "active"}
{"COMPOUND": "N/C(=N\\N=C\\c1cc2ccccc2s1)N/N=C/c1cc2ccccc2s1", "MEASUREMENT TARGET": "CCRF-CEM leukemia", "CLASS NAME": "inactive"}
{"COMPOUND": "Nc1cc(N)c2cccnc2c1O", "MEASUREMENT TARGET": "CCRF-CEM leukemia", "CLASS NAME": "active"}
{"COMPOUND": "Nc1ncc(C#Cc2cncc(NC(=O)c3cccc(C(F)(F)F)c3)c2)c2cccnc12", "MEASUREMENT TARGET": "CCRF-CEM leukemia", "CLASS NAME": "inactive"}
{"COMPOUND": "COc1cc(C2CC(c3cccc(Nc4ccncc4)c3)=NN2C(C)=O)cc(OC)c1OC (configuration not stated)", "MEASUREMENT TARGET": "CCRF-CEM leukemia", "CLASS NAME": "inactive"}
{"COMPOUND": "Nc1ccccc1NC(=O)c1ccc(CN2CCC/C(=C\\c3cccc(Cl)c3)C2=O)cc1", "MEASUREMENT TARGET": "CCRF-CEM leukemia", "CLASS NAME": "active"}
{"COMPOUND": "O=S(=O)(NCCNc1nccc(-c2c(-c3cccc(F)c3)nc3occn23)n1)c1cccc2ccccc12", "MEASUREMENT TARGET": "CCRF-CEM leukemia", "CLASS NAME": "inactive"}
{"COMPOUND": "CCCC/C(=N\\N=C(N)N)c1ccc(F)cc1", "MEASUREMENT TARGET": "CCRF-CEM leukemia", "CLASS NAME": "inactive"}
{"COMPOUND": "COc1ccc(/C=C/c2n[nH]c3ccc(N4CCOC4=O)cc23)cc1", "MEASUREMENT TARGET": "CCRF-CEM leukemia", "CLASS NAME": "active"}
{"COMPOUND": "CC(=O)NCCCS(=O)(=O)O", "MEASUREMENT TARGET": "CCRF-CEM leukemia", "CLASS NAME": "inactive"}
{"COMPOUND": "Cn1/c(=N/NC(N)=S)ccc2ccccc21", "MEASUREMENT TARGET": "CCRF-CEM leukemia", "CLASS NAME": "inactive"}
